Tested on: Saccharomyces cerevisiae
Test: Activation of yeast alpha-glucosidase type 1 at 100 uM using p-Nitrophenyl alpha-D-glucopyranoside as substrate preincubated for 10 mins followed by incubation with substrate for 15 mins and measured after 5 mins by microplate reader analysis relative to control
Task for the reader: assign each of the following compounds its reported Activity.

Q. Recall and state the measured Activity for "C=C1CC[C@H]2C(C)(C)CCC[C@]2(C)[C@H]1Cc1occc1C" .
A. 1.1 to 29.4%

Q. Recall and state the measured Activity for "C=C1CC[C@H]2C(C)(C)CCC[C@]2(C)[C@H]1CC(=O)/C(C)=C/CO" .
A. 1.1 to 29.4%

Q. Identify measured Activity corresponding to "C=C1CC[C@H]2C(C)(C)CCC[C@]2(C)[C@H]1C[C@H](O[C@@H]1O[C@H](CO)[C@@H](O)[C@H](O)[C@H]1O)/C(C)=C/CO"
A. 1.1 to 29.4%

Q. Given "C=C(CC[C@@H]1[C@@]2(C)CCCC(C)(C)[C@@H]2CC[C@@]1(C)O)[C@H](O)CO" , respond with its Activity.
A. 1.1 to 29.4%

Q. Read off the recorded Activity for "C=C1CC[C@H]2C(C)(C)CCC[C@]2(C)[C@H]1C[C@H](O)/C(C)=C/CO"
A. 1.1 to 29.4%

Q. Indicate the recorded Activity value for this compound: "C=C1CC[C@H]2C(C)(C)CCC[C@]2(C)[C@H]1C[C@H](O[C@@H]1O[C@H](CO)[C@@H](O)[C@H](O)[C@H]1O)/C(C)=C/COC(=O)CC(C)C"
A. 1.1 to 29.4%

Q. Identify measured Activity associated with "C=C(CC[C@@H]1[C@@]2(C)CCCC(C)(C)[C@@H]2CC[C@@]1(C)O)[C@@H](O)CO"
A. 1.1 to 29.4%

Q. Tell me its Activity given "C=C1CC[C@H]2C(C)(C)CCC[C@]2(C)[C@H]1C[C@@H](O)/C(C)=C/CO" as the entry.
A. 1.1 to 29.4%

Q. Report measured Activity; entry is "C/C(=C\CO)CC[C@@H]1[C@@]2(C)CCCC(C)(C)[C@@H]2CC[C@@]1(C)O"
A. 1.1 to 29.4%
